Measured values drawn from the NIST ThermoML archive (doi:10.1016/j.jct.2017.07.012) for this set.

assay.procedure: activity coefficient (dimensionless); of the first substance listed, at infinite dilution; xn = mol fraction of the nth substance listed
setup.conditions: 303.15 K; 101.33 kPa; Liquid; Chromatography; x1 = 0

>  <compound>
CO [methanol] + CCCCn1cc[n+](C)c1.[O-][Cl+3]([O-])([O-])[O-]

>  <activity coefficient>
1.07

$$$$
>  <compound>
ClC(Cl)(Cl)Cl [tetrachloromethane] + CCCCn1cc[n+](C)c1.[O-][Cl+3]([O-])([O-])[O-]

>  <activity coefficient>
3.61

$$$$
>  <compound>
CCCCCCCCC [nonane] + CCCCn1cc[n+](C)c1.[O-][Cl+3]([O-])([O-])[O-]

>  <activity coefficient>
151

$$$$
>  <compound>
ClC(Cl)Cl [trichloromethane] + CCCCn1cc[n+](C)c1.[O-][Cl+3]([O-])([O-])[O-]

>  <activity coefficient>
0.78

$$$$
>  <compound>
CC#N [acetonitrile] + CCCCn1cc[n+](C)c1.[O-][Cl+3]([O-])([O-])[O-]

>  <activity coefficient>
0.61

$$$$
>  <compound>
CC(C)=O [acetone] + CCCCn1cc[n+](C)c1.[O-][Cl+3]([O-])([O-])[O-]

>  <activity coefficient>
0.84

$$$$
>  <compound>
CCCCCC [hexane] + CCCCn1cc[n+](C)c1.[O-][Cl+3]([O-])([O-])[O-]

>  <activity coefficient>
81.7

$$$$
>  <compound>
CCO [ethanol] + CCCCn1cc[n+](C)c1.[O-][Cl+3]([O-])([O-])[O-]

>  <activity coefficient>
1.67

$$$$

====

We begin with a simple list: items and their reported activity coefficient.
assay.procedure: activity coefficient (dimensionless); of the first substance listed, at infinite dilution; xn = mol fraction of the nth substance listed
setup.conditions: 343.15 K; 101.33 kPa; Liquid; Chromatography; x1 = 0
reported.property: activity coefficient

>  <compound>
CC(C)=O [acetone] + CCCCn1cc[n+](C)c1.[O-][Cl+3]([O-])([O-])[O-]

>  <quantitative.readout>
1.05

$$$$
>  <compound>
CCO [ethanol] + CCCCn1cc[n+](C)c1.[O-][Cl+3]([O-])([O-])[O-]

>  <quantitative.readout>
1.45

$$$$
>  <compound>
C1CCOC1 [tetrahydrofuran] + CCCCn1cc[n+](C)c1.[O-][Cl+3]([O-])([O-])[O-]

>  <quantitative.readout>
1.94

$$$$
>  <compound>
CC(C)CCO [3-methylbutan-1-ol] + CCCCn1cc[n+](C)c1.[O-][Cl+3]([O-])([O-])[O-]

>  <quantitative.readout>
3.21

$$$$

====

assay.procedure: activity coefficient (dimensionless); of the first substance listed, at infinite dilution; xn = mol fraction of the nth substance listed
setup.conditions: 333.15 K; 101.33 kPa; Liquid; Chromatography; x1 = 0
# key: entry, value: activity coefficient

>  <compound>
c1ccccc1 [benzene] + CCCCn1cc[n+](C)c1.[O-][Cl+3]([O-])([O-])[O-]

>  <activity coefficient>
2

$$$$
>  <compound>
C1CCCCC1 [cyclohexane] + CCCCn1cc[n+](C)c1.[O-][Cl+3]([O-])([O-])[O-]

>  <activity coefficient>
35.4

$$$$
>  <compound>
C1COCCO1 [1,4-dioxane] + CCCCn1cc[n+](C)c1.[O-][Cl+3]([O-])([O-])[O-]

>  <activity coefficient>
1.02

$$$$
>  <compound>
CCCO [propan-1-ol] + CCCCn1cc[n+](C)c1.[O-][Cl+3]([O-])([O-])[O-]

>  <activity coefficient>
1.99

$$$$
>  <compound>
CC#N [acetonitrile] + CCCCn1cc[n+](C)c1.[O-][Cl+3]([O-])([O-])[O-]

>  <activity coefficient>
0.65

$$$$
>  <compound>
CC1CCCCC1 [methylcyclohexane] + CCCCn1cc[n+](C)c1.[O-][Cl+3]([O-])([O-])[O-]

>  <activity coefficient>
47.3

$$$$

====

Listed next: entries and their corresponding activity coefficient.
assay.procedure: activity coefficient (dimensionless); of the first substance listed, at infinite dilution; xn = mol fraction of the nth substance listed
setup.conditions: 323.15 K; 101.33 kPa; Liquid; Chromatography; x1 = 0

>  <molecule>
CCCCCCC [heptane] + CCCCn1cc[n+](C)c1.[O-][Cl+3]([O-])([O-])[O-]

>  <activity coefficient>
99.1

$$$$
>  <molecule>
CCOC(C)=O [ethyl acetate] + CCCCn1cc[n+](C)c1.[O-][Cl+3]([O-])([O-])[O-]

>  <activity coefficient>
2.46

$$$$
>  <molecule>
c1ccccc1 [benzene] + CCCCn1cc[n+](C)c1.[O-][Cl+3]([O-])([O-])[O-]

>  <activity coefficient>
1.97

$$$$
>  <molecule>
C1CCOC1 [tetrahydrofuran] + CCCCn1cc[n+](C)c1.[O-][Cl+3]([O-])([O-])[O-]

>  <activity coefficient>
1.67

$$$$
>  <molecule>
CC(C)O [propan-2-ol] + CCCCn1cc[n+](C)c1.[O-][Cl+3]([O-])([O-])[O-]

>  <activity coefficient>
2.06

$$$$
>  <molecule>
CCC(C)O (stereo unspecified) [butan-2-ol] + CCCCn1cc[n+](C)c1.[O-][Cl+3]([O-])([O-])[O-]

>  <activity coefficient>
2.66

$$$$
>  <molecule>
CC(C)=O [acetone] + CCCCn1cc[n+](C)c1.[O-][Cl+3]([O-])([O-])[O-]

>  <activity coefficient>
0.94

$$$$
>  <molecule>
CCCCCCCCCC [decane] + CCCCn1cc[n+](C)c1.[O-][Cl+3]([O-])([O-])[O-]

>  <activity coefficient>
217

$$$$
>  <molecule>
ClCCl [dichloromethane] + CCCCn1cc[n+](C)c1.[O-][Cl+3]([O-])([O-])[O-]

>  <activity coefficient>
0.96

$$$$
>  <molecule>
C1CCCCC1 [cyclohexane] + CCCCn1cc[n+](C)c1.[O-][Cl+3]([O-])([O-])[O-]

>  <activity coefficient>
35.2

$$$$
>  <molecule>
Cc1ccccc1C [1,2-dimethylbenzene] + CCCCn1cc[n+](C)c1.[O-][Cl+3]([O-])([O-])[O-]

>  <activity coefficient>
4.09

$$$$
>  <molecule>
CC(C)CO [2-methyl-1-propanol] + CCCCn1cc[n+](C)c1.[O-][Cl+3]([O-])([O-])[O-]

>  <activity coefficient>
2.9

$$$$
>  <molecule>
CCCCCCCC [octane] + CCCCn1cc[n+](C)c1.[O-][Cl+3]([O-])([O-])[O-]

>  <activity coefficient>
119

$$$$
>  <molecule>
C1=CCCCC1 [cyclohexene] + CCCCn1cc[n+](C)c1.[O-][Cl+3]([O-])([O-])[O-]

>  <activity coefficient>
14.7

$$$$
>  <molecule>
CC(C)CC(C)(C)C [2,2,4-trimethylpentane] + CCCCn1cc[n+](C)c1.[O-][Cl+3]([O-])([O-])[O-]

>  <activity coefficient>
107

$$$$
>  <molecule>
CC#N [acetonitrile] + CCCCn1cc[n+](C)c1.[O-][Cl+3]([O-])([O-])[O-]

>  <activity coefficient>
0.63

$$$$

====

assay.procedure: activity coefficient (dimensionless); of the first substance listed, at infinite dilution; xn = mol fraction of the nth substance listed
setup.conditions: 333.15 K; 101.33 kPa; Liquid; Chromatography; x1 = 0
// reported activity coefficient per item
reported.property: activity coefficient

>  <compound>
CCCCCCCCC [nonane] + CCCCn1cc[n+](C)c1.[O-][Cl+3]([O-])([O-])[O-]

>  <reported.property>
activity coefficient

>  <quantitative.readout>
137

$$$$
>  <compound>
CCCCCCCC [octane] + CCCCn1cc[n+](C)c1.[O-][Cl+3]([O-])([O-])[O-]

>  <reported.property>
activity coefficient

>  <quantitative.readout>
119

$$$$
>  <compound>
CCc1ccccc1 [ethylbenzene] + CCCCn1cc[n+](C)c1.[O-][Cl+3]([O-])([O-])[O-]

>  <reported.property>
activity coefficient

>  <quantitative.readout>
5.11

$$$$
>  <compound>
ClCCl [dichloromethane] + CCCCn1cc[n+](C)c1.[O-][Cl+3]([O-])([O-])[O-]

>  <reported.property>
activity coefficient

>  <quantitative.readout>
1.01

$$$$
>  <compound>
ClC(Cl)Cl [trichloromethane] + CCCCn1cc[n+](C)c1.[O-][Cl+3]([O-])([O-])[O-]

>  <reported.property>
activity coefficient

>  <quantitative.readout>
0.98

$$$$
>  <compound>
Cc1ccccc1C [1,2-dimethylbenzene] + CCCCn1cc[n+](C)c1.[O-][Cl+3]([O-])([O-])[O-]

>  <reported.property>
activity coefficient

>  <quantitative.readout>
4.16

$$$$
>  <compound>
C=Cc1ccccc1 [styrene] + CCCCn1cc[n+](C)c1.[O-][Cl+3]([O-])([O-])[O-]

>  <reported.property>
activity coefficient

>  <quantitative.readout>
2.29

$$$$
>  <compound>
CO [methanol] + CCCCn1cc[n+](C)c1.[O-][Cl+3]([O-])([O-])[O-]

>  <reported.property>
activity coefficient

>  <quantitative.readout>
1.02

$$$$
